experimental_parameters: buffer; pH 7.4; 200.0 µM
For each of the molecules below, state its solubility kinetic.

Answer for every listed entry: what is its solubility kinetic? The entries follow.
1. CC(=O)c1sc(NC(=O)COc2ccc(Cl)cc2Cl)nc1C
2. Cc1cccc(NC(=O)CN(CCc2ccccc2)S(C)(=O)=O)c1
3. CC(C)N1CC(C(=O)Nc2ccc(F)c(Cl)c2)CC1=O (stereo not drawn)

Result:
1: < 0.4 µg/mL; 2: > 52 µg/mL; 3: > 44.8 µg/mL

---

Answer each item with its documented solubility kinetic.
experimental_parameters: buffer; pH 7.4; 200.0 µM

Consider the reported solubility kinetic for these compounds:
INSERT INTO results (compound, result) VALUES
  ('CN(C)C(=S)Nc1ccc(Cl)cc1', '> 32.2 µg/mL'),
  ('COc1c(Cl)ccc(Cl)c1C(=O)NCc1ccco1', '> 45 µg/mL'),
  ('CC1(C2CC2)NC(=O)N(CC(=O)Nc2ccc(SC(F)F)cc2)C1=O (stereo unspecified)', '> 55.4 µg/mL'),
  ('COC(=O)[C@H](C)NC(=O)NCc1ccccc1', '> 35.4 µg/mL'),
  ('Cc1cccc(-c2nc(C)cc(=O)[nH]2)c1', '> 30 µg/mL');

Required: solubility kinetic, one value per compound below.
1. O=C1NCCN1CCNS(=O)(=O)c1ccccc1[N+](=O)[O-]
2. CCOc1ccc(C(=O)OC(C)CN2CCCCC2)cc1.Cl (stereo unspecified)
3. CCc1cn(C2CC(O)C(CO)O2)c(=O)[nH]c1=O (stereo unspecified)

Result:
1: > 47.1 µg/mL; 2: > 49.2 µg/mL; 3: > 38.4 µg/mL

Please state, for each entry, its recorded solubility kinetic.
1. c1csc(-c2nnc(COc3ncnc4sccc34)o2)c1
2. CC(=O)Nc1nc(C)c(C(C)C)s1
3. CCc1ccc(C2CC(=O)Nc3c2c(=O)nc2c(C)cccn32)cc1 (stereo unspecified)

Result:
["> 47.5 µg/mL", "> 29.7 µg/mL", "> 50 µg/mL"]

The values you see were collected from PubChem BioAssay AID1996.
